Every entry's value here was drawn from ChEMBL document CHEMBL3988442.

Target: Arginase-2, mitochondrial (Homo sapiens) (UniProt P78540)
Sequence (whole entry): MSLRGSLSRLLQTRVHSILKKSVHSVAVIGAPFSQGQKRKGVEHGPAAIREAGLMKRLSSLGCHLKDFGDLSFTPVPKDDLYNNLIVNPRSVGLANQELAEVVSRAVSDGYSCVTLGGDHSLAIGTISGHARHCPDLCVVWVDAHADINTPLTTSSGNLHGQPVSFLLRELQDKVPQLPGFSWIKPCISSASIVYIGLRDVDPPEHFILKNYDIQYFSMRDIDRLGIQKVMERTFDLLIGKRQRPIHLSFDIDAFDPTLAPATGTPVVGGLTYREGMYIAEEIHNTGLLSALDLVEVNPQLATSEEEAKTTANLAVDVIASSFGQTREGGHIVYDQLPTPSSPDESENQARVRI
Experiment: in vitro enzyme assay to detect the production of urea directly proportional to the activity of Arginase II
Format: functional
Parameters: scale not given: in the data most compounds retested in dose-response had high values
Details: 33.3 µM
# Percent Effect values compiled below
Attribute Measured: Percent Effect (%)

{"Molecule": "COCCNC(=O)Nc1ccc(-n2cncn2)c(F)c1", "Value Observed": 0}
{"Molecule": "c1ncn(CC2CN(Cc3csc(C4CCCC4)n3)CCO2)n1 (configuration not stated)", "Value Observed": -1.44}
{"Molecule": "O=C(c1coc(COc2cccc(F)c2)n1)N1CC[C@H](O)[C@@H](O)C1", "Value Observed": 3.33}
{"Molecule": "CCOCC1CN(Cc2cnn(C)c2)Cc2nn(C)cc21 (configuration not stated)", "Value Observed": 0.81}
{"Molecule": "CCC1CCCCCN1C(=O)c1nnc2ccccc2c1N (configuration not stated)", "Value Observed": 0}
{"Molecule": "COc1nc(C)c(C(=O)N(C)Cc2nc(-c3ccccn3)no2)s1", "Value Observed": -3.65}
{"Molecule": "Cc1noc(C)c1CCC(=O)NC(C)c1nnc2n1CCC2 (configuration not stated)", "Value Observed": 5.71}
{"Molecule": "CCC1CN(CCC(=O)N(C)C)CCN1CCOC (configuration not stated)", "Value Observed": -0.401}
{"Molecule": "CC(C)CN1CCc2[nH]cnc2C12CCN(C(=O)c1cccnc1)CC2", "Value Observed": -1.56}
{"Molecule": "CSCc1nc(C(C)(C)NC(=O)OC(C)(C)C)no1", "Value Observed": -2.08}
{"Molecule": "Cc1ccc(CC(=O)N2Cc3nccn3CC(Cn3cccn3)C2)cc1 (configuration not stated)", "Value Observed": 2.79}
{"Molecule": "Cc1cc(C2CCCN2CC(=O)N(CCC#N)c2ccccc2F)on1 (configuration not stated)", "Value Observed": -4.99}
{"Molecule": "CCc1ncnc2c1CCN(Cc1ccccn1)CC2", "Value Observed": -11.4}
{"Molecule": "O=C(C1CCOC1)N1CC[C@@H](O)[C@@H]1Cc1ccccc1 (some centres not stated)", "Value Observed": 3.2}
{"Molecule": "Cn1cnc2c1C(COCC1CC1)CN(C(=O)Cc1ccsc1)C2 (configuration not stated)", "Value Observed": -8.39}
{"Molecule": "CC(C)n1[nH]c(=O)c2c1NC(=O)CC2c1ccc2ncccc2c1 (configuration not stated)", "Value Observed": -5.94}
{"Molecule": "O=C(c1cc(Cl)c2c(c1)OCO2)N1CCCC(n2ccnc2)C1 (configuration not stated)", "Value Observed": 0}
{"Molecule": "COc1ccc(-n2ncc(C(=O)NCC3COC(C)(C)O3)c2N)cc1 (configuration not stated)", "Value Observed": 1.33}
{"Molecule": "O=C(Nc1nnc(C2CC2)s1)NC1CCN(Cc2ccccc2)C1 (configuration not stated)", "Value Observed": 0.82}
{"Molecule": "CC(NC1(CNC(=O)Cn2cccn2)CCOCC1)c1ccccc1 (configuration not stated)", "Value Observed": 3.72}
{"Molecule": "Cc1ccccc1-c1noc(CN2CCn3c(nnc3C3CC3)C2)n1", "Value Observed": -0.41}
{"Molecule": "COCCC(=O)N1CC2(CCN(Cc3ccoc3)C2)C1", "Value Observed": 5.36}
{"Molecule": "CCc1cccc(N2CCC(NC(=O)c3ccc(=O)[nH]n3)CC2)c1", "Value Observed": 4.52}
{"Molecule": "Cc1cnn(CC2CCCCN2Cc2nnc(C3CC3)n2C)c1 (configuration not stated)", "Value Observed": 0.215}
{"Molecule": "CCN1CC2(CC1=O)CN(Cc1cnn(C)c1)CCN(C(=O)C(C)C)C2 (configuration not stated)", "Value Observed": -1.67}
{"Molecule": "Cc1ccc(NC(=O)c2cc(S(=O)(=O)N3CCCCC3)c[nH]2)cc1F", "Value Observed": 5.81}
{"Molecule": "Cc1nccn1-c1cccc(C2CCCN(C(=O)c3cc[nH]n3)C2)n1 (configuration not stated)", "Value Observed": -3.98}
{"Molecule": "Cc1[nH]/c(=N\\C(=O)c2csc(NCC(C)C)n2)sc1C", "Value Observed": -2.45}
{"Molecule": "COCCN1CC(C(=O)NCc2ccnc(-n3cccn3)c2)CC1=O (configuration not stated)", "Value Observed": 3.28}
{"Molecule": "O=C(c1cn(-c2cc(N3CCSCC3)ncn2)cn1)N1CCSCC1", "Value Observed": -1.82}
{"Molecule": "O=C(NCCc1ccn(-c2ccccc2)n1)N1CCC1", "Value Observed": -2.32}
{"Molecule": "Cc1ccc2c(c1)CCC21CCN(C(=O)CO)CC1", "Value Observed": -20.7}
{"Molecule": "O=C(NC1COC2(CCN(Cc3ccccn3)CC2)C1)c1ccccn1 (configuration not stated)", "Value Observed": 8.39}
{"Molecule": "Cc1ccc(Cl)cc1N1CCC(CNC(=O)CCn2ccnn2)C1 (configuration not stated)", "Value Observed": 8.61}
{"Molecule": "CC(=O)N1CCN(C(=O)CCOc2ccc(C(C)C)cc2)CC1", "Value Observed": 2.3}
{"Molecule": "Cc1nn(-c2ccccc2)cc1C(=O)N1CCCN2CCCC2C1 (configuration not stated)", "Value Observed": 0.887}
{"Molecule": "Cc1cccc(CN2C[C@@H]3CN(C(=O)NC(C)C)C[C@@H]3C2=O)c1", "Value Observed": -35.9}
{"Molecule": "Cc1nn(C)c(C)c1NC(=O)CN1CCc2c(nc(C3CC3)n2C)C1", "Value Observed": -5.71}
{"Molecule": "COc1ccc(C(C(=O)O)N2CCCN(C3CCCCC3)CC2)cn1 (configuration not stated)", "Value Observed": -6.2}
{"Molecule": "Cc1cc(N2CCC(Cc3ccccc3)CC2)nc(-c2ccncc2)n1", "Value Observed": -6.76}
{"Molecule": "CCCc1cc(=O)n(CC(N)=O)c(-n2nc(C)cc2C)n1", "Value Observed": -4.52}
{"Molecule": "CCC(=O)N1CCC(c2nc3ccc(NC(C)C)cn3n2)CC1", "Value Observed": -0.833}
{"Molecule": "Cn1cnnc1CNC(=O)Nc1cc(C(F)(F)F)c[nH]c1=O", "Value Observed": -0.383}
{"Molecule": "O=S(=O)(c1cccs1)N1CC[C@H](O)[C@@H]1Cc1ccncc1", "Value Observed": 2.23}
{"Molecule": "Cn1ccc(C(=O)N2CCC(Cc3cnc4[nH]ccc4c3)CC2)n1", "Value Observed": 1.16}
{"Molecule": "c1ccc(Cn2cncn2)c(CNCC2CNc3ccnn3C2)c1 (configuration not stated)", "Value Observed": 1.78}
{"Molecule": "Cn1c(C2CC2)nc2c1CCN(CC(=O)Nc1nncs1)C2", "Value Observed": -11.4}

---

target: Chromo domain-containing protein 1 (Saccharomyces cerevisiae (strain ATCC 204508 / S288c) (Baker's yeast)) (UniProt P32657); assay: ScCHD-1 Enzyme Inhibition Assay; type: functional; design: scale not given: in the data most compounds retested in dose-response had high values; details: 30 µM
Sequence (P32657 whole entry, the tested form may be a part): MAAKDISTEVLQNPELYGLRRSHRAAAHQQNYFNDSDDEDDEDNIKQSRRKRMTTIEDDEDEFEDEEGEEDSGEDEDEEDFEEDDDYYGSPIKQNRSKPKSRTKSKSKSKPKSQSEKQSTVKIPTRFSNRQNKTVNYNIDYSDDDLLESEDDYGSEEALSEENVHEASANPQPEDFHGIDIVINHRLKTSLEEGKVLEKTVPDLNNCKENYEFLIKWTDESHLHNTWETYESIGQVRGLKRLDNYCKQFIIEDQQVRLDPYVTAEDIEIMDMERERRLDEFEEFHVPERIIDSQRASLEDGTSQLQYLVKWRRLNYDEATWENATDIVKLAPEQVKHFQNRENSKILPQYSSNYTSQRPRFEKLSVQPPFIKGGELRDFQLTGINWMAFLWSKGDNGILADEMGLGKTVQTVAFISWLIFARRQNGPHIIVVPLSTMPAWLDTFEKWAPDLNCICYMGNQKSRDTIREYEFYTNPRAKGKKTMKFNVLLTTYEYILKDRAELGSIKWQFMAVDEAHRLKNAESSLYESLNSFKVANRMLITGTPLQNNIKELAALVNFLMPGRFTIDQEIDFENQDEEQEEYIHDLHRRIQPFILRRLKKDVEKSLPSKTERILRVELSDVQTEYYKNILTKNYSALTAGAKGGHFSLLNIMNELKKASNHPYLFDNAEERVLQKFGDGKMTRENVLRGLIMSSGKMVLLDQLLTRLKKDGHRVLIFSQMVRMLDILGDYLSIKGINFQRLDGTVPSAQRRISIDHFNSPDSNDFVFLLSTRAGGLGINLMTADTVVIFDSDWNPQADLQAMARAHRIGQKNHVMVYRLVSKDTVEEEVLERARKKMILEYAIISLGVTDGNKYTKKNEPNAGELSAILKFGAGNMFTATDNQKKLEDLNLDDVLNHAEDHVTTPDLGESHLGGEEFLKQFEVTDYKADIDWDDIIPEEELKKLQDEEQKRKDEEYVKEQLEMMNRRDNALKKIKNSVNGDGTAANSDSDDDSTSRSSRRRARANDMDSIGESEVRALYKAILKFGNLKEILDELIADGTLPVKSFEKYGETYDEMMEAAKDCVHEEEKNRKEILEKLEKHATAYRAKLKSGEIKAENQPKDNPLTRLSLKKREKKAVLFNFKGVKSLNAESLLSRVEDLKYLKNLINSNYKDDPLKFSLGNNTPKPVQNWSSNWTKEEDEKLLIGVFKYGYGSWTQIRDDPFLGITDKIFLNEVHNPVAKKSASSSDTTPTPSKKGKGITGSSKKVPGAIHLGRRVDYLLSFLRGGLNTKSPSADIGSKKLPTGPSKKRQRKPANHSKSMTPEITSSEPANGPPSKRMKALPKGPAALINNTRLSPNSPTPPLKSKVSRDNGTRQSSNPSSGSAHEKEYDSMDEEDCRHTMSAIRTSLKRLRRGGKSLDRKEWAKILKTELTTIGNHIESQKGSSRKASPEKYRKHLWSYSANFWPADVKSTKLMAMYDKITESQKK
Attribute Measured: Percent Effect (%)

{"Compound": "Cn1nc(C(=O)N2CCCCC2c2nc3cc(F)ccc3[nH]2)ccc1=O (centres undefined)", "Value Observed": -10.9}
{"Compound": "Cc1ncccc1O[C@H]1CCN(C(=O)Cc2cccs2)CC[C@@H]1O", "Value Observed": -22.2}
{"Compound": "CCN(C)S(=O)(=O)N(CC)Cc1ccc2c(c1)OCO2", "Value Observed": -8.91}
{"Compound": "Cc1nc(CNC(=O)NCCc2ccc(N(C)C)cc2)cs1", "Value Observed": -10.4}
{"Compound": "CN(Cc1ccc2c(c1)OCCO2)C(=O)Cn1ccccc1=O", "Value Observed": -7.25}
{"Compound": "Cc1noc(C2CCN(C(=O)CCNc3ncccn3)CC2)n1", "Value Observed": -4.88}
{"Compound": "Nc1nccc(NCc2cc3n(n2)CCCN(C(=O)C2CCC2)C3)n1", "Value Observed": -0.468}
{"Compound": "Cc1ccc2c(c1)c(CNC(=O)C1CCN(C(C)C)CC1)nn2C", "Value Observed": -3.28}
{"Compound": "CCN(Cc1ccc2c(c1)OCO2)C(=O)CCc1c(C)nc(C)[nH]c1=O", "Value Observed": -1.69}
{"Compound": "CCc1nc(CN(C)C2CCN(CCS(C)(=O)=O)C2)no1 (centres undefined)", "Value Observed": -5.25}
{"Compound": "Cc1nc(N(C)C)nc2c1COCC21CCN(C(=O)NC(C)C)C1 (centres undefined)", "Value Observed": -4.61}
{"Compound": "O=C1c2cnc(N3CCOCC3)nc2CN1c1ccc2c(c1)OCO2", "Value Observed": 0.201}
{"Compound": "Cc1nc(C2CCCN2CC(=O)NCCc2ccsc2)no1 (centres undefined)", "Value Observed": -8.06}
{"Compound": "Cc1nnc(CN2CCCC(c3cc(C(N)=O)[nH]n3)C2)o1 (centres undefined)", "Value Observed": 1.61}
{"Compound": "Cc1ccc(CNC(CN2CCN(C)CC2)c2ccccc2)cc1 (centres undefined)", "Value Observed": -3.22}
{"Compound": "CCc1ncncc1C(=O)N1CCCN(Cc2ccc(C)cc2)CC1", "Value Observed": 6.06}
{"Compound": "O=C(c1cc(COc2ccc3c(c2)OCO3)[nH]n1)N1CCOCC1", "Value Observed": -5.41}
{"Compound": "COc1cccc(CCC(=O)N2CCCC(n3cc(C)cn3)C2)c1 (centres undefined)", "Value Observed": -20}
{"Compound": "CC(Cc1ccco1)NC(=O)Nc1ccc(S(C)(=O)=O)nc1 (centres undefined)", "Value Observed": -12.4}
{"Compound": "CN(C)C(=O)N1C[C@@H]2CC[C@H](C1)N(C(=O)CCCn1cncn1)C2", "Value Observed": -3.6}
{"Compound": "CCC(=O)N1CCC2(COCc3c(C)nc(N(C)C)nc32)C1 (centres undefined)", "Value Observed": -4.5}
{"Compound": "CN(CCO)C(=O)c1coc(CN2CCN(c3ccccc3F)CC2)n1", "Value Observed": 97.1}
{"Compound": "CCn1ccnc1CN1CCCN(C(=O)Cn2nc(C)cc2C)CC1", "Value Observed": -14.3}
{"Compound": "Cc1cnn(C2CCCN(C(=O)Cc3ccc(-n4cccn4)cc3)C2)c1 (centres undefined)", "Value Observed": -7.75}
